The reader will find reported TGI values listed item by item below.
Test system: KM20L2 colon
protocol notes: NCI tumour cell line growth inhibition, 48 h

// below: answered molecules
- molecule: "CC1SC2=NC3=C(c4ccccc4C3=O)C(c3ccccc3Cl)N2C1=O (stereo not drawn)"
  TGI: "> 100 µM"
- molecule: "CC(=O)OC1=C2CC[C@@H]3C(CC[C@@]4(C)C3CC[C@@H]4OC(C)=O)[C@@]2(C)CC(C#N)C1=O (stereo partly drawn)"
  TGI: "> 100 µM"

So what TGI did CN=C1CN=C(OP(=O)(N2CCOCC2)N2CCOCC2)c2cc(Cl)ccc2N1 get with KM20L2 colon?
> 100 µM

###

Test system: HT29 colon
protocol notes: NCI tumour cell line growth inhibition, 48 h; in the data active = GI50 below about 0.43 µM; inactive = the rest
Mark one answer only. Choices: 1.0 = active, 0.0 = inactive

Record excerpt, results attached:
- compound: "O=C(c1ccc2ccccc2c1)c1c(C(F)(F)F)n([O-])c2cc(C(F)(F)F)ccc2[n+]1=O"
  target desc: "HT29 colon"
  group label: 0.0
- compound: "COc1ccc(C2CC(c3ccc(OC)cc3O)=NN2c2ccc(S(N)(=O)=O)cc2)cc1 (centres undefined)"
  target desc: "HT29 colon"
  group label: 0.0
- compound: "O=C(c1ccccc1)C1OC1C(=O)c1ccccc1 (centres undefined)"
  target desc: "HT29 colon"
  group label: 0.0
- compound: "CCC[CH2][Sn]1([CH2]CCC)[O]CC[S]1"
  target desc: "HT29 colon"
  group label: 0.0

Just curious, what result did COc1cc(NS(C)(=O)=O)ccc1Cc1c2ccccc2nc2ccccc12 get here?
1.0

Could you kindly confirm the outcome this assay logged for O=C1/C(=C/c2ccc(F)cc2)CN(C(=O)C(Cl)Cl)C/C1=C\c1ccc(F)cc1 ?
1.0

Assay outcome for O=[N+]([O-])c1ccc(N=Nc2c(Cl)cc(O)cc2Cl)cc1 : what was it?
0.0

# lookup: test call for CCN1C(=O)N(CC)C2C1NN=c1s/c(=C\c3ccc(C(F)(F)F)cc3)c(=O)n12 (centres undefined)
1.0

Could you kindly confirm the outcome this assay logged for CC(=O)Nc1ccc(OC(C)=O)cc1 ?
1.0

Just curious, what result did C#Cc1cccc(NC(=O)c2cccc(NC(=O)CCl)c2)c1 get here?
0.0

###

Tested on: M14 melanoma
protocol notes: NCI tumour cell line growth inhibition, 48 h; in the data active means GI50 below about 0.43 µM; inactive means the rest
Form entry, call: pick from True (active), False (inactive)

- compound: "CCC[CH2][Sn]1([CH2]CCC)[O]CC[S]1"
  target desc: "M14 melanoma"
  group label: "False"
- compound: "CCCCC(OC(=O)c1ccc(N)cc1)C(=O)Nc1nc(CC(=O)OCC)cs1 (stereo unspecified)"
  target desc: "M14 melanoma"
  group label: "False"
- compound: "CC(=O)[CH-]C(C)=O.CC(=O)[CH-]C(C)=O.[Cl-].[O]=[V]"
  target desc: "M14 melanoma"
  group label: "False"
- compound: "O=C(Nc1cccc(C(F)(F)F)c1)c1ccc(NC2=C(Cl)C(=O)N(Cc3ccccc3)C2=O)cc1"
  target desc: "M14 melanoma"
  group label: "False"
- compound: "CCN(CCO)CCCC(C)Nc1ccnc2cc(Cl)ccc12 (stereo unspecified)"
  target desc: "M14 melanoma"
  group label: "False"

For the next question, use this compound.
Returns: the outcome recorded for CC(=O)Nc1ccc(OC(C)=O)cc1 in this assay.
True

###

Tested on: BT-549 breast
protocol notes: NCI tumour cell line growth inhibition, 48 h
Quick reference: TGI of the listed items.
Return type: number; implicit unit µM.

Use these answered entries as a reference point.
- compound: "S=C1SCN(Cc2ccccc2)CN1Cc1ccccc1"
  TGI (µM): 33.4
- compound: "CCN(CC)CCn1c(=O)c2cc(OC)c(OC)cc2c2ccc3cc4c(cc3c21)OCO4"
  TGI (µM): 17.2
- compound: "CC1=C(SCCO)C(=O)c2ccccc2C1=O"
  TGI (µM): 31.7
- compound: "O=C(Nc1n[nH]c2nc(-c3ccc(O)cc3)c(Br)cc12)C1CC1"
  TGI (µM): 19.8
- compound: "O=C1c2ccccc2C(=O)c2c1oc1c2c(=O)[nH]c2ccc(Cl)cc21"
  TGI (µM): 1.31

Form field: reported TGI of Cc1nc(-n2nc(-c3ccccc3)cc2-c2ccccc2)sc1C(=O)/C=C/c1ccc([N+](=O)[O-])cc1
39.5

Would you kindly share the measured TGI for COCN1C(=N)C(C(=O)OC(C)(C)C)=C2C=C(O)C=CC21C (stereo not given) ?
12.8

Could you share which TGI value was measured for CCc1cccc(NC(=O)Nc2ccc(Oc3ccc4nc(NC(=O)OC)[nH]c4c3)cc2)c1 ?
24.4

###

As shown below, each of these compounds has a reported TGI value.
Test system: SK-OV-3 ovarian
protocol notes: NCI tumour cell line growth inhibition, 48 h
Lab book: enter the figure in µM, no units written.

# annotated cases, reported TGI shown
- compound: "O=C(C=Nc1ccccc1S)c1ccco1"
  TGI (µM): 10.1
- compound: "N#CC1(C#N)[C@@H]2CCC=C(Sc3ccccc3)[C@@H]21"
  TGI (µM): 39.6
- compound: "FC(F)(F)c1cc(NC(=S)N2c3ccccc3-n3cccc3C2c2cccnc2)cc(C(F)(F)F)c1 (stereo not given)"
  TGI (µM): 27.5

Item COc1ccc(-c2cc(-c3ccc(OC)cc3)nc(NCCCNc3ccnc4cc(Cl)ccc34)n2)cc1 has what recorded TGI?
3.14

Given the entry CC[C@@H]1CSC(/C=C/C2OC3OC(C)(C)OC3C3OC(C)(C)OC23)=N1 (stereo not given in full) , report its measured TGI.
91.4

###

System: SK-MEL-28 melanoma
protocol notes: NCI tumour cell line growth inhibition, 48 h
observable: TGI

As a guide, the following entries are already answered.
- molecule: "O=C(Nc1n[nH]c2nc(-c3ccc(O)cc3)c(Br)cc12)C1CC1"
  TGI: "9.88 µM"
- molecule: "COc1ccc(C(=O)CCN(C)C)c2ccccc12"
  TGI: "60.3 µM"
- molecule: "N#Cc1ccc([N+](=O)[O-])cc1NC(N)=S"
  TGI: "> 100 µM"
- molecule: "COc1ccc2c(=O)c3c([nH]c2c1)OCC3=O"
  TGI: "> 100 µM"
- molecule: "COc1ccc(N/N=C/C2=CC(C)(C)C(C#N)(C#N)C(O)=C2C#N)cc1"
  TGI: "> 100 µM"

Now take the following molecule into account.
Name the recorded TGI for O=C(c1ccccc1)C1OC1C(=O)c1ccccc1 (centres undefined) .
44.5 µM

###

Test system: NCI/ADR-RES ovarian
protocol notes: NCI tumour cell line growth inhibition, 48 h
compounds and their reported GI50

- smiles text: "CCOC(=O)c1c2c(n3ccc(NC(=O)CCN4CCCCC4)cc13)C(=O)c1ncccc1C2=O"
  target desc: "NCI/ADR-RES ovarian"
  GI50: "1140 nM"
- smiles text: "O=C(c1ccc2ccccc2c1)c1c(C(F)(F)F)n([O-])c2cc(C(F)(F)F)ccc2[n+]1=O"
  target desc: "NCI/ADR-RES ovarian"
  GI50: "2080 nM"
- smiles text: "O=C1c2cc3c(cc2-c2c1c1ccc(F)cc1c(=O)n2C[C@H](O)[C@H](O)[C@H](O)CO)OCO3"
  target desc: "NCI/ADR-RES ovarian"
  GI50: "207 nM"
- smiles text: "COc1cc2c(/C=C3/C(=O)Nc4ccc(O)cc43)c(Cl)n(Cc3cc(OC)c(OC)c(OC)c3)c2cc1C"
  target desc: "NCI/ADR-RES ovarian"
  GI50: "3410 nM"
- smiles text: "O=C(Nc1cccc(C(F)(F)F)c1)c1ccc(NC2=C(Cl)C(=O)N(Cc3ccccc3)C2=O)cc1"
  target desc: "NCI/ADR-RES ovarian"
  GI50: "10800 nM"

For the compound COc1cc2c(cc1O)c(=O)n(CCN(C)C)c1c3cc4c(cc3ncc21)OCO4 , what GI50 is on record?
< 10 nM

What GI50 value was documented for this compound, C/C(CC(C)(C)N1CC1)=N\NC(=O)Nc1cccc2ccccc12 ?
3670 nM

Item under review: CC[C@H]1CCC/C=C/[C@@H]2C[C@H](O)C[C@H]2[C@H](O)/C=C/C(=O)O1 . Reported GI50?
37.9 nM

Using the record for O=C(Nc1n[nH]c2nc(-c3ccc(O)cc3)c(Br)cc12)C1CC1 , report its GI50.
6490 nM

###

Readings of TGI for the listed molecules
Test system: 786-0 renal
protocol notes: NCI tumour cell line growth inhibition, 48 h
Peptide text beside a SMILES is read from it. * marks the point of attachment. X34 = O=C(c1ccc(-c2ccc(Cl)cc2Cl)o1)*
Could you give me the number in µM? Just the number is fine.

- molecule: "O=C(Nc1ccccc1Cl)c1ccc(NC2=C(Cl)C(=O)N(C3CCCCC3)C2=O)cc1"
  TGI, µM: 30.2

Proceed to the following item.
Which TGI reading was recorded for the molecule COC(=O)C(CC(C)C)NC(=O)C(Cc1ccccc1)NC(=O)C1CCCN1C(=O)C(CO)NC(=O)c1ccc(-c2ccc(Cl)cc2Cl)o1 (centres undefined) (X34-SPFL-OMe; configuration not given here) ?
56.9

// provenance: PubChem BioAssay (NCI)
